Where do the numbers come from? From the supplement of paper PMC8047044.

# Test system: Neuro-2a
# METHOD DESCRIPTION: neurite formation score, plate-normalized to DMSO control mean 5.04 (score (0-8 scale)); higher = more or longer neurites
# EXPERIMENTAL SETUP: 1 µM
Structures can show the parent of a compound that is named as a salt.
PARAMETER: neurite formation score
Please respond with just the number, no unit label.

query: # neurite formation score lookup, item CCOc1cc(C(=O)N2CCC(N3CCN(C)CC3)CC2)ccc1Nc1ncc2c(n1)N(C1CCCC1)c1ccccc1C(=O)N2C
result: 4.02

query: # neurite formation score lookup, item Cc1ccc(-c2csc3ncnc(SCCC(=O)O)c23)cc1
result: 4.02

query: # neurite formation score lookup, item Oc1cccc(-c2nc(N3CCOCC3)c3oc4ncccc4c3n2)c1 [PI-103 Hydrochloride]
result: 4.69

query: # neurite formation score lookup, item N#CCNC(=O)c1ccc(-c2ccnc(Nc3ccc(N4CCOCC4)cc3)n2)cc1 [CYT387 sulfate salt]
result: 4.69

query: # neurite formation score lookup, item COc1cc(-c2cc(-c3ccc(N4CCNCC4)cc3)cnc2C)cc(OC)c1OC
result: 4.47

query: # neurite formation score lookup, item C[C@@H]1CN(CC(=O)Nc2ccc3c(c2)Cc2cccc(-c4cc(=O)cc(N5CCOCC5)o4)c2S3)C[C@H](C)O1
result: 3.9

query: # neurite formation score lookup, item COc1ncc(-c2ccc3nccc(-c4ccnnc4)c3c2)cc1NS(=O)(=O)c1ccc(F)cc1F
result: 2.63

query: # neurite formation score lookup, item Cn1c(=O)c(F)c(Nc2ccc(I)cc2F)c2c(=O)n(C[C@@H](O)CO)cnc21
result: 4.88

query: # neurite formation score lookup, item Cn1cnc2c(F)c(Nc3ccc(Br)cc3F)c(C(=O)NOCCO)cc21
result: 3.24

query: # neurite formation score lookup, item Cc1ccc(NC(=O)c2cccc(C(C)(C)C#N)c2)cc1Nc1ccc2ncn(C)c(=O)c2c1
result: 5.24
